Target Desc: HLA-A*23:01
Experiment Description: IEDB peptide-MHC binding, purified MHC/direct/fluorescence; filed as Kd, often an IC50 or EC50 that approximates it; bounds were set here for any values at or beyond the usual limits of such assays
Condition Context: source organism: Burkholderia mallei ATCC 23344
Measurement Label: pKd
Give only the number. pKd is defined as minus log10 of concentration in molar units.

Query the reported pKd for HLA-A*23:01; item: `PFFFGFSHF`
7.62

----------
Target Desc: HLA-B*39:01
Experiment Description: IEDB peptide-MHC binding, purified MHC/direct/fluorescence; filed as Kd, often an IC50 or EC50 that approximates it; bounds were set here for any values at or beyond the usual limits of such assays
Condition Context: source organism: Sudan virus - Boniface, Sudan,1976
Measurement Label: Kd

Param item = `TMMRHRREL` ; retrieve measured Kd.
≥ 20 µM

----------
Target Desc: HLA-C*08:02
Experiment Description: IEDB peptide-MHC binding, purified MHC/direct/fluorescence; filed as Kd, often an IC50 or EC50 that approximates it; bounds were set here for any values at or beyond the usual limits of such assays
Condition Context: source organism: human gammaherpesvirus 4
Measurement Label: Kd

Missing value: Kd, HLA-C*08:02, entry `ASDYSQGAF` . Fill in?
≤ 1 nM

----------
Target Desc: HLA-A*01:01
Experiment Description: IEDB peptide-MHC binding, purified MHC/direct/fluorescence; filed as Kd, often an IC50 or EC50 that approximates it; bounds were set here for any values at or beyond the usual limits of such assays
Condition Context: source organism: Mycobacterium tuberculosis variant bovis BCG str. Pasteur 1173P2
Measurement Label: Kd

Consider the sequence shown here: `IIRVTSELL` What is its recorded Kd?
≥ 20 µM

----------
Target Desc: HLA-A*68:02
Experiment Description: IEDB peptide-MHC binding, purified MHC/competitive/fluorescence; filed as Kd, often an IC50 or EC50 that approximates it; bounds were set here for any values at or beyond the usual limits of such assays
Condition Context: source organism: Vibrio cholerae 2740-80
Measurement Label: Kd

Bench note: what Kd did `KQLPPLAAW` show?
≥ 20 µM

----------
Target Desc: HLA-A*11:01
Experiment Description: IEDB peptide-MHC binding, purified MHC/direct/fluorescence; filed as Kd, often an IC50 or EC50 that approximates it; bounds were set here for any values at or beyond the usual limits of such assays
Condition Context: source organism: Mycobacterium tuberculosis variant bovis BCG str. Pasteur 1173P2
pKd: −log10 of the molar value.
Measurement Label: pKd

Sample `IIRVTSELL` — what was its pKd?
≤ 4.70

----------
Target Desc: HLA-C*03:03
Experiment Description: IEDB peptide-MHC binding, purified MHC/direct/fluorescence; filed as Kd, often an IC50 or EC50 that approximates it; bounds were set here for any values at or beyond the usual limits of such assays
Condition Context: source organism: Lyssavirus rabies
pKd: −log10 of the molar value.
Measurement Label: pKd

Item `YLDNVGVHI` has what recorded pKd?
≤ 4.70

----------
Field: pKd. Provide a value for each of the sequences that follow.
Target Desc: HLA-A*26:01
Experiment Description: IEDB peptide-MHC binding, purified MHC/competitive/radioactivity; filed as Kd, often an IC50 or EC50 that approximates it; bounds were set here for any values at or beyond the usual limits of such assays
Condition Context: source organism: Dengue virus 3 Martinique/1243/1999
Note on pKd: it is the negative log10 of concentration, concentration in mol/L.

Requested read-out: pKd. Entry: `ETENILTVL`
5.53

For the sequence shown here, `GVVTKNGGY` , give the reported pKd.
5.92
